The reported measurements were obtained from the METLIN SMRT retention time set (Domingo-Almenara et al. 2019).

assay: gradient 5% acetonitrile 3 min, to 50% in 2 min, to 85% in 15 min, held 3 min, 100 µL/min; conditions: column: Zorbax Extend-C18 2.1 x 50 mm; eluents: water / acetonitrile, 0.1% formic acid
PARAMETER_MEASURED: RP-LC retention time (s)

>>> endpoint_result("Cc1nc2nc(-c3ccccc3)nn2c(Sc2ccc(N)cc2)c1C")
863
>>> endpoint_result("O=C(Cn1cccc1-c1nnc(-c2ccccc2)o1)N1CCc2ccccc2C1")
986

I: O=C(Nc1cccc(-c2cn3cccnc3n2)c1)c1cccc([N+](=O)[O-])c1
II: CCCOc1nc2ccccc2nc1N1CCCC(C(=O)NC2CCCCC2)C1 (centres undefined)
Data request: Among I and II , which shows a numerically higher RP-LC retention time result? Pick one and reply with its label.
Data returned: II
